# assay remarks: Partition coefficient (logP)
# Type: physicochemical
# assay context: octanol/water; read-out: logP
result type: logP

CCCN(Cc1ccccc1)C(=O)C1CCCN(Cc2ccc(CN3CCCC(C(=O)N(CCC)Cc4ccccc4)C3)cc2)C1 (centres undefined)    6.79
CCCCN(C)C(=O)C1CCCN(Cc2ccc(CN3CCCC(C(=O)N(C)CCCC)C3)cc2)C1 (centres undefined)    4.52
CCN(Cc1ccccc1)C(=O)C1CCCN(Cc2ccc(CN3CCCC(C(=O)N(CC)Cc4ccccc4)C3)cc2)C1 (centres undefined)    5.76
CCN(CC)C(=O)C1CCCN(Cc2ccc(CN3CCCC(C(=O)N(CC)CC)C3)cc2)C1 (stereo in doubt; 3a)    3.48
CCN(CC)CC1CCCN(Cc2ccc(CN3CCCC(CN(CC)CC)C3)cc2)C1 (centres undefined)    4.8
O=C(NCc1ccccc1)C1CCCN(Cc2ccc(CN3CCCC(C(=O)NCc4ccccc4)C3)cc2)C1 (centres undefined)    4.18
O=C(C1CCCN(Cc2ccc(CN3CCCC(C(=O)N(Cc4ccccc4)Cc4ccccc4)C3)cc2)C1)N(Cc1ccccc1)Cc1ccccc1 (centres undefined)    8.03

I: CN(Cc1ccccc1)C(=O)C1CCCN(Cc2ccc(CN3CCCC(C(=O)N(C)Cc4ccccc4)C3)cc2)C1 (centres undefined)
II: CCCCN(CCCC)C(=O)C1CCCN(Cc2ccc(CN3CCCC(C(=O)N(CCCC)CCCC)C3)cc2)C1 (centres undefined)
[ask] Lower logP: I or II ? Kindly state the label of the option you pick.
[reply] I
